Tested on: HOP-62
Assay: NCI tumour cell line growth inhibition, 48 h
Activity calls are given as the source filed them. Rule as the data show it: active = GI50 up to about 1.1 µM and inactive = higher.
Outcomes: class 1 (active), class 0 (inactive)

# compound, class_assignment
measured = [
    ("CC(=O)Oc1c(-c2ccccc2)[nH]c2cc([N+](=O)[O-])c(/C(Cl)=C/c3ccccc3)cc12", "class 0"),
    ("Cc1c(C(=O)N2CCN(c3ccc([N+](=O)[O-])cc3)CC2)[n+]([O-])c2cc(Cl)c(Cl)cc2[n+]1[O-]", "class 0"),
    ("CC1(c2ccc(Cl)cc2)CC(c2ccc(Cl)cc2)=C(C#N)C(=C(C#N)C#N)N1 (stereo not drawn)", "class 0"),
    ("COc1c(C)cc2c(c1O)C1NC(C2)[C@H](O)N2C3COC(=O)[C@@]4(CS[C@@H](c5c(OC(C)=O)c(C)c6c(c53)OCO6)C12)NCCC1=C4NC2C=CC=CC12 (stereo partly drawn)", "class 1"),
    ("COc1ccc(/C(Cl)=C(\\C=N/O)c2ccc(OC)c(OC)c2)cc1OC", "class 0"),
    ("CCCCc1c2c(nc3c1CC/C(=C\\c1ccc([N+](=O)[O-])cc1)C3=O)CCCC2", "class 0"),
    ("Cc1cc(N(CCC#N)CCC#N)ccc1/C=C(\\N=[N+]=[N-])C(=O)NC(=O)COc1ccccc1", "class 0"),
    ("CC1=C(C#N)C2C(=C(C)N1)C(N)=Nc1ccccc12 (stereo not drawn)", "class 0"),
]
